# assay-summary: label from the status in PepcDB records
readout-label: protein production

MEILVVAVGILVDRLTKIWALDKLKKVQDIPIIKNFFDLTYVENRGAAWGIFSGKTLVLSAVTLLVLSAIIVYMIKYRPKSKLARISLSLVISGALGNLYDRVFYKYVVDLFSLHYKDIYYYPVFNVADICVVVGTIMIAIFIVLKDDKKDGKV = failed
MSAGLTGIRVAVIGGDDREIYMIPELQKLGAYIVGVGFEKAAPIQGVTLLSSPLEAVEKADVLLFPMYGTDERGDVKAKYSETPIVLNKELLKAVSPKVPLFIGWARPALKSAAEMLGIQIVETANLDQLAILNSIPSAEGAIQMAMEASPITIHGSESFVLGLGRCGWTLARTLKGMGAHVTGVARKPADLARALEMGLEAVHFADLDEKIGKAELIFNTVPHLILDKVMLEQVNHEAVIIDIASLPGGTDFEYAKAKGIKAMLAPGLPGKVAPKAAGKILAQVYPQLILRHLTTKNASLKF = failed
ELAWLVDCLAPIFDGLRQPVTVVDPSGRFVYYNRASGLLDGLDPQRALGMHLLQSAPWLAAEQSTLLRCLAEGRPSIDTLQAYVGAGGELLQYRHRAIPLRGRDGCLLGAMEL = failed
